tested-target: QuantiLum Luciferase (Photinus pyralis, UniProt P08659)
Construct: purchased Promega Corporation E170
Sequence (P08659 whole entry): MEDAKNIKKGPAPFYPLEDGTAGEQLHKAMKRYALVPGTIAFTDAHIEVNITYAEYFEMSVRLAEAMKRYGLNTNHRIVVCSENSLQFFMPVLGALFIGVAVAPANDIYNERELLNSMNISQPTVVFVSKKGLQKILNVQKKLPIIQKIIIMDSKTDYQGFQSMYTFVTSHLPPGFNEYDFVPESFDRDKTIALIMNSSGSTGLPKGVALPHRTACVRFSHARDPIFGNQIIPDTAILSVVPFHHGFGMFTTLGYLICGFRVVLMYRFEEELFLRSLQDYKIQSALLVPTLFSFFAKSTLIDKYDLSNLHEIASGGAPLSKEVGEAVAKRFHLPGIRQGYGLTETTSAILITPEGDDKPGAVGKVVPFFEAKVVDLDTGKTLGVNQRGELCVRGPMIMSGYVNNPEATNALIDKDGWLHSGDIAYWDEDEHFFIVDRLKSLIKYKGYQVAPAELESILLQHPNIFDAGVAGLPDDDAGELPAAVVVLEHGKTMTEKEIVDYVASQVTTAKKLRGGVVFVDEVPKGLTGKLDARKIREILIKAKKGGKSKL
protocol-description: Scaffolds: light emission of luciferin derivatives with QuantiLum luciferase alone, + Co A, + DTT, + Co A and DTT
Type: biochemical, firefly
condition-label: Derivative Conc. 6.25; Co A + DTT
Please respond with 1.0 when measured light emission values is strictly beneath 80000, and with 0.0 in all other cases.

compound | label-value
CN(Cc1ccccc1)c1ccc2nc(C3=NC(C(=O)O)CS3)sc2c1 (stereo not shown) | 0.0
O=C(O)[C@H]1CSC(c2nc3ccc(OCc4ccccc4)cc3s2)=N1 [luciferin 6-benzyl ether, reference compound] | 0.0
O=C(O)[C@H]1CSC(c2nc3ccc(OCCO)cc3s2)=N1 [2hydroxyethoxyluciferin ether] | 1.0
COC(=O)[C@H]1CSC(c2ccc3cc(Oc4ccc(C(F)(F)F)cc4[N+](=O)[O-])ccc3n2)=N1 | 1.0
O=C(O)[C@H]1CSC(c2ccc3cc(Oc4ccc(C(F)(F)F)cc4[N+](=O)[O-])ccc3n2)=N1 | 1.0
COc1ccc2nc(C3=N[C@@H](C(=O)O)CS3)sc2c1 [luciferin 6-methyl ether, D-luciferin 6' methyl ether, reference compound] | 1.0
NCCCOc1ccc2nc(C3=N[C@@H](C(=O)O)CS3)sc2c1 | 0.0
